PARAMETER: melting point

Some molecules with recorded melting point:
CCOc1ccccc1N1CCN(CCc2ccc(COc3ccc4c(c3)CCC4)cc2)CC1	65.2 to 66.1 °C
Cc1ccccc1N1CCN(CCc2ccc(COc3ccc4c(c3)CCC4)cc2)CC1	62.3 to 63.1 °C
Fc1ccc(N2CCN(CCc3ccc(COc4ccc5c(c4)CCC5)cc3)CC2)cc1	79.8 to 80.5 °C
c1ccc(CN2CCN(CCc3ccc(COc4ccc5c(c4)CCC5)cc3)CC2)cc1	71.1 to 73.3 °C
Cc1ccc(Cl)cc1N1CCN(CCc2ccc(COc3ccc4c(c3)CCC4)cc2)CC1	87.4 to 88.3 °C
Fc1ccccc1N1CCN(CCc2ccc(COc3ccc4c(c3)CCC4)cc2)CC1	64.2 to 65.3 °C

Just so you know, measured melting point for Fc1ccc(N2CCN(CCc3ccc(COc4ccc5c(c4)CCC5)cc3)CC2)c(F)c1 came out at 86.1 to 86.5 °C

Just so you know, measured melting point for FC(F)(F)c1ccccc1N1CCN(CCc2ccc(COc3ccc4c(c3)CCC4)cc2)CC1 came out at 53.6 to 54.8 °C

Just so you know, measured melting point for c1ccc(N2CCN(CCc3ccc(COc4ccc5c(c4)CCC5)cc3)CC2)cc1 came out at 82.2 to 83.5 °C

Just so you know, measured melting point for Clc1ccccc1N1CCN(CCc2ccc(COc3ccc4c(c3)CCC4)cc2)CC1 came out at 91.4 to 92.1 °C

Just so you know, measured melting point for Cc1ccc(C)c(N2CCN(CCc3ccc(COc4ccc5c(c4)CCC5)cc3)CC2)c1 came out at 70.4 to 71.5 °C

Recorded values, source paper PMC9420858.
